Procedure Text: compounds boosting diaphorase resazurin reduction – biochemical, uHTS, resorufin fluorescence, counter-screen for diaphorase-coupled primary assays, primary screen (AID 1229)
Test Conditions: Diaphorase/resazurin coupled assay, 16 min, at 20 µM, 1 = vehicle wells, 0 = NADH-free wells
Out of some 190,000 compounds screened, about 10 (0.005%) were called active.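 The calls were made as follows: active = diaphorase activity raised at least twofold by the compound at 20 µM; inactive = activation factor below 2.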 The entries come from a sample that favours actives as a whole.
Outcome field: choose from class 1 (active), class 0 (inactive)

Could you please tell me the result logged for O=C(/C=C/c1ccc2c(c1)OCO2)NCc1cn2cc(Cl)ccc2n1 in this assay?
class 0

What is the recorded call for this compound in the test? O=C1c2ccccc2C(=O)N1CCC(O)C[N+](=O)[O-] (stereo unspecified)
class 0

Outcome? CCOC(=O)c1c(/N=C/c2cc(C)ccc2O)sc2c1CCC2
class 0

Each compound tested received a call. Report the one for CC(=O)NCCn1c(SCC(=O)Nc2ccc(C)cc2)nc2ccccc2c1=O .
class 0

Assay result, entry Cn1c(=O)cc(OCC(=O)N2CCN(c3ccccc3F)CC2)c2ccccc21 — outcome?
class 0

State the result this test recorded for NC(N)=N/N=C/c1ccc(OCc2ccc(Cl)cc2Cl)cc1 .
class 1

Recorded test call requested for Cn1cnnc1SCc1nnc(-c2ccccc2Br)o1
class 0

So what was the verdict on O=C(NNC(=S)Nc1ccccc1)c1cccc(S(=O)(=O)N2CCOCC2)c1 in this test?
class 0

Identify the outcome logged in this assay for the compound shown: Cc1cc(NS(=O)(=O)c2ccc(NC(=O)c3cccc(OC(F)F)c3)cc2)nc(C)n1
class 0

In this assay, the call recorded for O=C(c1ccc(F)cc1)n1cc(C(=S)N2CCOCC2)c2ccccc21 was what?
class 0

Call for entry CC(C)CNC(=O)/C=C/C(=O)O :
class 0

====

Procedure Text: compounds boosting diaphorase resazurin reduction – biochemical, uHTS, resorufin fluorescence, counter-screen for diaphorase-coupled primary assays, primary screen (AID 1229)
Test Conditions: Diaphorase/resazurin coupled assay, 16 min, at 20 µM, hits give high values, 1 = vehicle wells, 0 = NADH-free wells
About 10 (0.005%) of roughly 190,000 compounds were called active. What follows is part of a selection rich in actives, with near analogues and random picks from the rest.
Provide the recorded activation factor for the entries that follow.
Lab note: jot down the number only; don't add units.

# activation factor lookup, item COC(=O)/C=C\C(=O)Nc1cccc([N+](=O)[O-])c1
1.1

So what's the measured activation factor for this one? COCCN1C(=O)N[C@@H](c2ccccc2)C(C(=O)OC)=C1C
1

Request the reported activation factor associated with O=C(NCc1ccccc1)C1=C[C@@H](c2ccc(C(F)(F)F)cc2)C[C@@H](OCc2ccc(CO)cc2)O1
0.6

Consider the molecule shown here: CNC(=O)COc1ccc(S(=O)(=O)Nc2ccccc2)cc1 What is its recorded activation factor?
0.8

Look at this molecule and give its reported activation factor. CC(=O)Nc1ccc(S(=O)(=O)Nc2nccc(/C=C/c3ccccc3F)n2)cc1
0.8

Could you tell me which activation factor is on file for N/C(=N\OC(=O)CCc1ccccc1)c1cccnc1 ?
1

# input molecule: NC1=NC(=O)C(Cc2cccc(Cl)c2Cl)S1 (stereo unspecified) ; wanted: its activation factor
1

May I ask what activation factor has been recorded for Cc1cc(C)cc(OCC(=O)NNC(=O)CCN2C(=O)c3ccccc3C2=O)c1 ?
0.9

Field request: activation factor | item: C/C(=N\NS(=O)(=O)c1ccc(Cl)cc1)c1ccc(NC(=O)c2ccco2)cc1
0.8

Form field: reported activation factor of Cc1nc([N+](=O)[O-])cn1CC(=O)Nc1ccc2c(c1)OCO2
0.9

Requested field: activation factor. Item: O=S(=O)(NC1CC1)c1ccc2c3c(cccc13)CC2
1
